These entries and their values trace back to patent US20230272045A1.

Target: T1, human plasma fibronectin (human, UniProt P02751-8 32-2296, limits assumed)
T1 construct: Coated on ELISA plates at 100 nM; also called Fn
T1 sequence (P02751 other isoform, or with tags, fused parts or gaps limits assumed): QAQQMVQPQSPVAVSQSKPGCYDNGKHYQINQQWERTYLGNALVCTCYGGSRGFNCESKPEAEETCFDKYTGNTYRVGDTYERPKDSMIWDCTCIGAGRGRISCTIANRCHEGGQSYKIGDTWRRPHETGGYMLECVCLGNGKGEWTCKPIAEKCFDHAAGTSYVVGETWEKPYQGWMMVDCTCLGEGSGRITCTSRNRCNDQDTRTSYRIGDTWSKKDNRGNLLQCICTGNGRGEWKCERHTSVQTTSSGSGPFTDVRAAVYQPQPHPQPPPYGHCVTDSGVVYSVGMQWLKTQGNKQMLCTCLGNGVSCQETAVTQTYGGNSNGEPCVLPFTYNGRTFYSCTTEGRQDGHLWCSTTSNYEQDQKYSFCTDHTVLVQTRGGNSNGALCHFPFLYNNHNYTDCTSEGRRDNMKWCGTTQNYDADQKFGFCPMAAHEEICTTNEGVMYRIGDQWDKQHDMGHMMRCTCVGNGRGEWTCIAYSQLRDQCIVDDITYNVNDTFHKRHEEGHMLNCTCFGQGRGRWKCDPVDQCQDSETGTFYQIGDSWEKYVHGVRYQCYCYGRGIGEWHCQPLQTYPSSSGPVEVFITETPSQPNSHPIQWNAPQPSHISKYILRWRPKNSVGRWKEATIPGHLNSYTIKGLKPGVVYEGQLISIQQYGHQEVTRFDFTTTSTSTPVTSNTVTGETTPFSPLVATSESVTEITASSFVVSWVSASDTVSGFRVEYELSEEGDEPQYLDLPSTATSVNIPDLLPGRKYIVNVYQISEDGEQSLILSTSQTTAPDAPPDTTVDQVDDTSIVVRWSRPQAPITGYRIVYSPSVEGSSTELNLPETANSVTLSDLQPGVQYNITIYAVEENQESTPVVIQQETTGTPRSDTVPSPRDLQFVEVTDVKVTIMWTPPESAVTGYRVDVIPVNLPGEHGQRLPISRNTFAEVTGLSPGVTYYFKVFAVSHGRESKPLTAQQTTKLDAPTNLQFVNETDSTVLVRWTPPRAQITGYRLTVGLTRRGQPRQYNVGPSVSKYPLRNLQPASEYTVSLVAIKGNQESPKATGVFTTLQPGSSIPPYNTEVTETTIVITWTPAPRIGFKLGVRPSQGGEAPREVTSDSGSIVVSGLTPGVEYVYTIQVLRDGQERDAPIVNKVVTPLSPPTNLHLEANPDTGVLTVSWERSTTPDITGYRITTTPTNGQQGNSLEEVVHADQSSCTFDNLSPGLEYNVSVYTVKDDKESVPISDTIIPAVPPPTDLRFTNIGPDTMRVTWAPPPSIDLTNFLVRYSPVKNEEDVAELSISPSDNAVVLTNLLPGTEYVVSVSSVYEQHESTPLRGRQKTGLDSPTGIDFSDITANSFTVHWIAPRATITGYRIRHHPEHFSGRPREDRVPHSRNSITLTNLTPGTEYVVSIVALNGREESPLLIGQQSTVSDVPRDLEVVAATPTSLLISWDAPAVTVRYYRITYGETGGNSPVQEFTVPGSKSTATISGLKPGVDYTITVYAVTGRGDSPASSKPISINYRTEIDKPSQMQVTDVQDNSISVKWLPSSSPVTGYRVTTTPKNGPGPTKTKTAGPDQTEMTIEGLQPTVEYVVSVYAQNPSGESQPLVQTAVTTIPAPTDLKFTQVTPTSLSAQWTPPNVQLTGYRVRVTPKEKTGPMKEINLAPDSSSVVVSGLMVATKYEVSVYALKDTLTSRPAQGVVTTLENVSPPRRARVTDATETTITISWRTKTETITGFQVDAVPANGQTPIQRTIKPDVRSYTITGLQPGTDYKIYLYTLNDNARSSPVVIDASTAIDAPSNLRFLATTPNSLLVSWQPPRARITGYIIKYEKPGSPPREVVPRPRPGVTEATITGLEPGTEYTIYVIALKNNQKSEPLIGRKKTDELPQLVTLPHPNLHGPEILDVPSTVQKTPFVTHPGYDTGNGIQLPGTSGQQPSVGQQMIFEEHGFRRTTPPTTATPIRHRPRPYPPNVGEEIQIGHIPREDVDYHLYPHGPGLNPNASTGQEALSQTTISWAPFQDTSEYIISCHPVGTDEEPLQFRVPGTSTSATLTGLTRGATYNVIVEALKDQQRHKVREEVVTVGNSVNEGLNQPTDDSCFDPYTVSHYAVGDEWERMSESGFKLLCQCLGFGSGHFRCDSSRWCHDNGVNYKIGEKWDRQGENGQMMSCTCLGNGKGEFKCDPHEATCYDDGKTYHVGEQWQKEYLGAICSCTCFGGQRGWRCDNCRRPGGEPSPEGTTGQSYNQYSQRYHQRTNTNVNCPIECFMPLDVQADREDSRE
Test: ELISA; ECM protein coated at 100 nM, soluble protein 0-100 nM, one-site fit
metric: Kd

binder	recordedValue
PDGF-BB/PIGF123-141 (other, not shown: 6x histidine tag at the N-terminus) SLGSLAAAEPAVIAECKTRTEVFQISRNLIDRTNANFLVWPPCVEVQRCSGCCNNRNVQCRASQVQMRPVQVRKIEIVRKKPIFKKATVTLEDHLACKCETIVTPRPVTRRRPKGRGKRRREKQRPTD	17.7 nM
IL-1Ra/PIGF123-141 (other) MNHKVHHHHHHMRPSGKRPCKMQAFRIWDTNQKTFYLRNNQLIAGYLQGPNIKLEEKIDMVPIDLHSVFLGIHGGKLCLSCAKSGDDIKLQLEEVNITDLSKNKEEDKRFTFIRSEKGPTTSFESAACPGWFLCTTLEADRPVSLTNTPEEPLIVTKFYFQEDQRRRPKGRGKRRREKQRPTD	21.9 nM
PDGF-BB (murine wild-type platelet-derived growth factor-BB) (ligand, UniProt P31240 82-190, looked up, also called wild-type PDGF-BB) SLGSLAAAEPAVIAECKTRTEVFQISRNLIDRTNANFLVWPPCVEVQRCSGCCNNRNVQCRASQVQMRPVQVRKIEIVRKKPIFKKATVTLEDHLACKCETIVTPRPVT	67.5 nM

For reference, reported Kd for IL-1Ra (murine wild-type interleukin-1 receptor antagonist) (ligand, also called wild-type IL-1Ra; IL-1 receptor antagonist) MRPSGKRPCKMQAFRIWDTNQKTFYLRNNQLIAGYLQGPNIKLEEKIDMVPIDLHSVFLGIHGGKLCLSCAKSGDDIKLQLEEVNITDLSKNKEEDKRFTFIRSEKGPTTSFESAACPGWFLCTTLEADRPVSLTNTPEEPLIVTKFYFQEDQ stands at 129 nM
